- assay: In vivo BBB penetration experiment, LC-MS/MS of plasma and brain
- Design: species or system CD-1 male mice
- assay.setup: male, CD-1, mouse, brain, po, 50 mg/kg, perfused mice, n = 6, 24 h, read-out: Brain concentration, 24 h
property: concentration at 24 h

Bench note: what concentration at 24 h did COc1ccc2[nH]cc(CCNC(=O)CC(=O)CCc3ccc(O)cc3)c2c1 show? 47.4 nM

###

- assay: in vitro
- assay.setup: PAMPA
- Method: In the same assay, 10 commercial drugs with known CNS penetration were also tested as positive controls, and their experimental values were compared to reported values (Table 1).
property: Papp (×10⁻⁶ cm/s)
Just the number in ×10⁻⁶ cm/s, nothing appended.

compound: CN1C(C(=O)Nc2ccccn2)=C(O)c2ccccc2S1(=O)=O [Piroxicam, reference compound]
Papp [×10⁻⁶ cm/s]: 6
--
compound: COc1ccc2[nH]cc(CCNC(=O)CC(=O)/C=C/c3ccc(O)cc3)c2c1
Papp [×10⁻⁶ cm/s]: 5.9
--
compound: CN(C)CCCN1c2ccccc2Sc2ccccc21 [Promazine, reference compound]
Papp [×10⁻⁶ cm/s]: 25.1

Turning now to a further compound:
Bench note: what Papp did COc1ccc2[nH]cc(CCNC(=O)CC(=O)CCc3ccc(O)cc3)c2c1 show? 7.9
